These data points were gathered from the supplement of paper PMC10201428.

Test system: VchCAST RNA-guided transposition machinery (E. coli BL21(DE3) host, lacZ target)
Experiment: relative integration efficiency (T-LR orientation) vs wild-type transposon end (log2 (normalized fold change)); transposon end mutated: right end (5 bp flank + 75 bp right end); higher = more efficient transposition

# sequence_string, tested_system, relative integration efficiency (log2)
measured = [
    ("ACATTTGTTGATACAACCATAAAATGATAATTACACCCATAATAACATAATTATCACACCCATAAATTGATATTGCCTCTGATCATAGTCAGACCAACATTGCTACGACCCGTATTCGCACCGACAC", "VchCAST RNA-guided transposition machinery (E. coli BL21(DE3) host, lacZ target)", -1.45),
    ("ACATTTCTCGATACAACCATAAAATGATAATTACACCCATAAATTCATAATTATCACACCCAATTTAACTATAACGCTCTGATCATAGTCAGACCAACATTGCTACGACCCGTATTCGCACCGACAC", "VchCAST RNA-guided transposition machinery (E. coli BL21(DE3) host, lacZ target)", 0.496),
    ("ACATTTGTTGATACAACCATAAAGTGATATTTACAACCATATATTGATATCTCTCACAACCATAAAGTGATATTTACTCTGATCATAGTCAGACCAACATTGCTACGACCCGTATTCGCACCGACAC", "VchCAST RNA-guided transposition machinery (E. coli BL21(DE3) host, lacZ target)", -0.115),
    ("ACATTTGTTGATACAACCATAAAGTGATATTTACAACCATAAAATGATAATTATCACAACCATAAAGTGATATTTACTCTGATCATAGTCAGACCAACATTGCTACGACCCGTATTCGCACCGACAC", "VchCAST RNA-guided transposition machinery (E. coli BL21(DE3) host, lacZ target)", 0.103),
    ("ACATTTGTTGATACAACCATAAAATGATAATTACACCCATAAATTGATAATTATCACACCCATAAATTGATATTGCCTCTGACAACCATAAAATGATAATTATCATAGTCAGACCAAGCACCGACAC", "VchCAST RNA-guided transposition machinery (E. coli BL21(DE3) host, lacZ target)", -0.0996),
    ("ACATTTGTCGATCCAACCATAAAATGATAATTACACCCATAAATGGATCATTATCACACCCAATTTAACTATAACGCTCTGATCATAGTCAGACCAACATTGCTACGACCCGTATTCGCACCGACAC", "VchCAST RNA-guided transposition machinery (E. coli BL21(DE3) host, lacZ target)", 0.888),
    ("ACATTTGTTGATACAACCATAAAATGATAATTACACCCATAAATTGATAATTATGTCACCCATAAATTGATATTGCCTCTGATCATAGTCAGACCAACATTGCTACGACCCGTATTCGCACCGACAC", "VchCAST RNA-guided transposition machinery (E. coli BL21(DE3) host, lacZ target)", 0.557),
    ("ACATTTGTTGATACACCCATAAATTGATAATTACAACCATAAAATGATAATTATCACAACCATAAAATGATAATTACTCTGATCATAGTCAGACCAACATTGCTACGACCCGTATTCGCACCGACAC", "VchCAST RNA-guided transposition machinery (E. coli BL21(DE3) host, lacZ target)", -0.939),
    ("ACATTTGTTGATACAACCATAAAATGATAATTACACCCATAAATTGATAATTATCACACCCATAAATTGATATTGCCTCTGATCATAGTCAAACTGTATTTATATACAGTTGGACCAGCACCGACAC", "VchCAST RNA-guided transposition machinery (E. coli BL21(DE3) host, lacZ target)", 0.414),
    ("ACATTTGTTGATACAACCATAAAATGATAATTACACCCATAAATTGATAATTATCACACCCATAAATTGATATTGCCTCTGATCATTTGCATAAAAATTCATCTAGTCAGACCAACAGCACCGACAC", "VchCAST RNA-guided transposition machinery (E. coli BL21(DE3) host, lacZ target)", -0.0028),
]

---

Recorded relative integration efficiency (log2) for the following sequences
Tested on: VchCAST RNA-guided transposition machinery (E. coli BL21(DE3) host, lacZ target)
Assay: relative integration efficiency (T-RL orientation) vs wild-type transposon end (log2 (normalized fold change)); transposon end mutated: right end (5 bp flank + 75 bp right end); higher = more efficient transposition

# sequence_string, tested_system, relative integration efficiency (log2)
records = [
    ("ACATTTGTTGATACAACCATAAAATGATAATTACACCCATAAATTGATAATTATCACACCCATAAATTGATATTGCCTCTGTTTATGGCTAGCTCAGTCCTAGGTACAATGCTAGCCGCACCGACAC", "VchCAST RNA-guided transposition machinery (E. coli BL21(DE3) host, lacZ target)", -0.0948),
    ("ACATTTGTTGATACAACCATAAAGTGATATTTACAACCATAAGTTGATATTTTTCAGTGGGTATTTAACTATAACGCTCTGATCATAGTCAGACCAACATTGCTACGACCCGTATTCGCACCGACAC", "VchCAST RNA-guided transposition machinery (E. coli BL21(DE3) host, lacZ target)", -0.682),
    ("ACATTTGTTGATACAACCATAAAATGATAATTACAAACATAAATTGATAATTATCACACCCATAAATTGATATTGCCTCTGATCATAGTCAGACCAACATTGCTACGACCCGTATTCGCACCGACAC", "VchCAST RNA-guided transposition machinery (E. coli BL21(DE3) host, lacZ target)", -0.0203),
    ("ACATTTGTTGATACAACCATAAGTTGATATTTTCAACCATAAAGTGATATTTATCACAACCATATATTGATATCTCCTCTGATCATAGTCAGACCAACATTGCTACGACCCGTATTCGCACCGACAC", "VchCAST RNA-guided transposition machinery (E. coli BL21(DE3) host, lacZ target)", -0.136),
    ("ACATTTGTTGATACAACCATAAAATGATAATTACACCCATAAATTGATAATTATCACACCCATAAATTGATATTGCCTCTGATAACTTCGTATAATGTATGCTATACGAAGTTATTCGCACCGACAC", "VchCAST RNA-guided transposition machinery (E. coli BL21(DE3) host, lacZ target)", -0.484),
]

---

Test system: VchCAST RNA-guided transposition machinery (E. coli BL21(DE3) host, lacZ target)
Assay: relative integration efficiency (T-LR orientation) vs wild-type transposon end (log2 (normalized fold change)); transposon end mutated: right end (5 bp flank + 75 bp right end); higher = more efficient transposition

# sequence_string, relative integration efficiency (log2)
measured = [
    ("ACATTTGTTGATACAACCATAAAATGATAATTACACCCATAAATTGAGCCGTATCACACCCATAAATTGATATTGCCTCTGATCATAGTCAGACCAACATTGCTACGACCCGTATTCGCACCGACAC", -1.21),
    ("ACATTTCTGGATACAACCATAAAATGATAATTACACCCATAAATTGATAATTATCACACCCAATTTAACTATAACGCTCTGATCATAGTCAGACCAACATTGCTACGACCCGTATTCGCACCGACAC", 0.495),
    ("ACATTTGTTGATACAACCATAAAATGATAATTACTCTGATCATAGTCAGCACCCATAAATTGATAATTATCACACCCATAAATTGATATTGCACCAACATTGCTACGACCCGTATTCGCACCGACAC", -0.456),
]

---

System: VchCAST RNA-guided transposition machinery (E. coli BL21(DE3) host, lacZ target)
Test: relative integration efficiency (T-LR orientation) vs wild-type transposon end (log2 (normalized fold change)); transposon end mutated: right end (5 bp flank + 75 bp right end); higher = more efficient transposition
measurement_kind: relative integration efficiency (log2)

# sequence_string, result
measured = [
    ("ACATTTGTTGATACAACCATAAAAAGATAATTACACCCATAAATAGATAATTATCACACCCATAAATAGATATTGCCTCTGATCATAGTCAGACCAACATTGCTACGACCCGTATTCGCACCGACAC", -0.0292),
    ("ACATTTGTTGATACAACCATAAAGTGATATTTACACCCATAAATTGATAATTATCACACCCATAAATTGATAATTACTCTGATCATAGTCAGACCAACATTGCTACGACCCGTATTCGCACCGACAC", -0.191),
    ("ACATTAGTCGATACAACCATAAAATGATAATTACACCCATAAATTCATCATTATCACACCCAATTTAACTATAACGCTCTGATCATAGTCAGACCAACATTGCTACGACCCGTATTCGCACCGACAC", -6.06),
    ("ACATTTGTTGATACAACCATAAAATGATAATTACTCTGCACCCATAAATTGATAATTATCAGTGGGTATTTAACTATAACGATCATAGTCAGACCAACATTGCTACGACCCGTATTCGCACCGACAC", 0.872),
    ("ACATTTGTTCATACAACCATAAAATGATAATTCACCCATCAATTGATAATTATCACACCCCAATTTAACTATAACGCTCTGATCATAGTCAGACCAACATTGCTACGACCCGTATTCGCACCGACAC", -2.51),
    ("ACATTTGTTGATACAACCATAAAATGATAATTACACCCATAAATTGATAATTATCACACCCATAAATTGATATTGCCTCTGCAACCATAAAATGATAATTAATCATAGTCAGACCAAGCACCGACAC", -0.129),
    ("ACATTTGTGGATACAACCATAAAATGATAATTACACCCATAAATTGATCATTATCACACCCAATTTAACTATAACGCTCTGATCATAGTCAGACCAACATTGCTACGACCCGTATTCGCACCGACAC", 1.89),
    ("ACATTAGTTCATACAACCATAAAATGATAATTACACCCATAAATGGATAATTATCACACCCAATTTAACTATAACGCTCTGATCATAGTCAGACCAACATTGCTACGACCCGTATTCGCACCGACAC", -3.62),
    ("ACATTTGTTGATGCAACCATAAAGTGATATTTAATAATTATTTATAATCAGCAACTTAACCACAAAACAACCATATATTGATATCTCACAAAACAACCATAAGTTGATATTTTCTCTGATCATAGTC", "< -10"),
    ("ACATTTGTTGATACAACCATAAAATGATAATTACACCCATAAATTGATAATTATCACACCCATAAATTTCGCGGTAAGAGGATCATAGTCAGACCAACATTGCTACGACCCGTATTCGCACCGACAC", 2.22),
]
